system.under.test: T1, Ebola virus GP with a C-terminal polyhistidine tag (Sino Biologicals, Catalog #40442-V08B1) (Ebola virus, UniProt P87666 33-650)
T1 construct: also called EbolaGP.his; Ebola virus GP.his
test.description: SPR 37C, mAb captured
Listing of entries alongside the reported kon.
# value in M⁻¹ s⁻¹; strip the unit string

H1H17142P (antibody, V domains shown) VH: EVQLVESGGGLVQPGGSLRLSCAASGFTFSSYAMTWVRQAPGKGLEWVSSISGSGTSTYYADSVKGRFTISRDNSKNTLYLQMNSLRAEDTALYYCSRDIYTWNFLSLIGGMDVWGQGTTVTVSS VL: DIQMTQSPSSLSASVGDRVTITCRASQGIRIDLGWYQQKPGKAPNRLIYAASSLQGGVPSRFSGSGSGTEFTLTISSLQPEDFATYYCLQQNSYPWTFGQGTKVEIK; 26000
H1H17193P (antibody, V domains shown) VH: QVQLVESGGGVVQPGRSLRLSCAASGFTFSSYGIHWVRQAPGKWLEWVAFIWFDGSNKYYADSVKGRFTISRDDSKNTLYLQMNSLRAEDTAVYYCARDGEIFGVLISSDAFDIWGQGTMVTVSS VL: DIQMTQSPSSLSASVGDRVTITCRASRGIRNDLGWFQQKPGKAPKRLIYVASNLQSGVPSRFSGSGSGTEFTLTISSLQPEDFATYYCLQHNSYPITFGQGTRLEIK; 15800
H1H17203P (antibody, V domains shown) VH: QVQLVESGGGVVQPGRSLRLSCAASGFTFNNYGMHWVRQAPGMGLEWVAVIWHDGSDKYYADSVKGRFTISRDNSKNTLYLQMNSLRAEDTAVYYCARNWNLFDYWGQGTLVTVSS VL: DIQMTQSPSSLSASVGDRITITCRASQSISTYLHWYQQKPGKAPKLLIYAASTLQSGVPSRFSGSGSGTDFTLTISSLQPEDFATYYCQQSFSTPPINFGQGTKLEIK; 38500
H1H17196P (antibody, V domains shown) VH: EVQLVESGGGLVQPGGSLRLSCAASGFTFRSYDMHWVRQGSGKGLEWVSAIGTAGDTYYLGSVKGRFTISRENAKNSLYLQMNSLRAGDTAVYYCARAWFGDVFLDYWGQGTLVTVSS VL: EIVMTQSPATLSVSPGERATLSCRASQSVSSNLAWYQQKPGQAPRLLIYGASTRATGIPARFSGSGSGTEFTLTISSLQSEDFAGYYCQQYNNRLTFGGGTKVEIK; 31600

Summary for this binder, H1H17199P (antibody, V domains shown) VH: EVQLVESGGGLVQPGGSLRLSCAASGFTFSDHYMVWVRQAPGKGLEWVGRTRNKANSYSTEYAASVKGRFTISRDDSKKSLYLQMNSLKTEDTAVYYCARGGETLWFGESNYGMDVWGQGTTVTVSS VL: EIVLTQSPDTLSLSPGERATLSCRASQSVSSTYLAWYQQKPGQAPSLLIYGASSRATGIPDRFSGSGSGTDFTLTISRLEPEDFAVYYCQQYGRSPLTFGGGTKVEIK : kon is 30400

Summary for this binder, H1M17354N (antibody, V domains shown, also called HCAF05C08-22) VH: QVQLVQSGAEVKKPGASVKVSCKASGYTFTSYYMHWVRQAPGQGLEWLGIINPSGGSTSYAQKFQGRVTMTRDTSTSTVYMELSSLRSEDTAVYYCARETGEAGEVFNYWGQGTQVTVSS VL: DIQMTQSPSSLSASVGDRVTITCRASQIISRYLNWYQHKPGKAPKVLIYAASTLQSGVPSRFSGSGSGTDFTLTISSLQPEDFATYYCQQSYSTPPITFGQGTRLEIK : kon is 50800
